# Target entity: T1, human ANGPTL3 (human, UniProt Q9Y5C1 17-460)
# T1 construct: Biotinylated in the ELISA assays; also called hANGPTL3; free ANGPTL3
# T1 sequence: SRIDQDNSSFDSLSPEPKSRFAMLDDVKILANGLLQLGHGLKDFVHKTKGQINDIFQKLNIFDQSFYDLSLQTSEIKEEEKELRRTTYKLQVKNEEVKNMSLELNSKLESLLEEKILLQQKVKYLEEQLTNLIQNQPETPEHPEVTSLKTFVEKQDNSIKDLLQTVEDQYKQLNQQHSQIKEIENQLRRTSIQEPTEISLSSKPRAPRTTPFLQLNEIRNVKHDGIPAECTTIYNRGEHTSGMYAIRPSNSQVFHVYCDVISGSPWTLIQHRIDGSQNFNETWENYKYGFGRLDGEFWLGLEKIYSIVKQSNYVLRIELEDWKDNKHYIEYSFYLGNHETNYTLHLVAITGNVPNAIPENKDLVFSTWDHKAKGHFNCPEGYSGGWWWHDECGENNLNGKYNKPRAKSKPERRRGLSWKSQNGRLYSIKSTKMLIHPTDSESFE
# Assay info: ELISA; Ab captured by anti-human Fc; biotinylated antigen at 100 nM
Parameter: OD at 560 nm (OD 560 nm)
Give the number; OD 560 nm is assumed, so skip it.

Some entries whose results are on file:
anti-ANGPTL3/8 complex Ab having a LC of SEQ ID NO:5 and a HC of SEQ ID NO:6 (antibody, human IgG4 S228P, kappa, F234A L235A, V domains shown, In the ELISA assays tested as IgG from CHO supernatants; also called the Ab) VH: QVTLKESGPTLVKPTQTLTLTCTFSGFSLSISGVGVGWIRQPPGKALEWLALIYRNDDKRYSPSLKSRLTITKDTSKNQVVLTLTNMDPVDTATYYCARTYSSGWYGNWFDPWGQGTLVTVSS VL: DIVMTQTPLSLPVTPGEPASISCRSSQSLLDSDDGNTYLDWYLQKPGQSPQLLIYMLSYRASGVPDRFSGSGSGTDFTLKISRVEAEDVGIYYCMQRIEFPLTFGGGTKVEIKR | 0.081
Ab with LC variant having a E99Q mutation (SEQ ID NO:25) and a HC of SEQ ID NO:6 (antibody, human IgG4 S228P, kappa, F234A L235A, V domains shown, also called E99Q Variant Ab; E99Q Ab) VH: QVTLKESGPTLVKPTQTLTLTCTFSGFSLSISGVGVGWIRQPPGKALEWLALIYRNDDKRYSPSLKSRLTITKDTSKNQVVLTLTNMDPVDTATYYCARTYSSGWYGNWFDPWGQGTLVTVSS VL: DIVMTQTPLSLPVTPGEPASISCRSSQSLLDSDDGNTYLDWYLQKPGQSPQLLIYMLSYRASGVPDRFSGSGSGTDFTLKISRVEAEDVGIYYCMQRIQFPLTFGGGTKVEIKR | 0.084
Ab with LC variant having a D31S mutation (SEQ ID NO:21) and a HC of SEQ ID NO:6 (antibody, human IgG4 S228P, kappa, F234A L235A, V domains shown, also called D31S Variant Ab; D31S Ab) VH: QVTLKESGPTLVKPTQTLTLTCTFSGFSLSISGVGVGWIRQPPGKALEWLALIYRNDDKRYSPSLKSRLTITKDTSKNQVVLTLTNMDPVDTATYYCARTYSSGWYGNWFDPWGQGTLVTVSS VL: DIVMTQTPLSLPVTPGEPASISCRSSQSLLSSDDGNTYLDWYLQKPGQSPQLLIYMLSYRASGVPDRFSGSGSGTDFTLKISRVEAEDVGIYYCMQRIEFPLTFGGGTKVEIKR | 0.084

# context switch: different binder, same OD at 560 nm
Per the records, this binder ( Ab with LC variant having a D33A mutation (SEQ ID NO:22) and a HC of SEQ ID NO:6 (antibody, human IgG4 S228P, kappa, F234A L235A, V domains shown, also called D33A Variant Ab; D33A Ab) VH: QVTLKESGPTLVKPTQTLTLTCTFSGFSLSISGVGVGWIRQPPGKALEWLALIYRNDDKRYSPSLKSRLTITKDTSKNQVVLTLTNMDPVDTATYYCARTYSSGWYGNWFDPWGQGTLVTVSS VL: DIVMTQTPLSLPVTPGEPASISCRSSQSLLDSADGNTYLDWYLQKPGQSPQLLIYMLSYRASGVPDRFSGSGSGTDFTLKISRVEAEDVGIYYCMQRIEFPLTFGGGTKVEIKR ) has OD at 560 nm equal to 0.082
